Entries and their measured remaining activity at 1 µM follow.
target: MPO (Homo sapiens)
Construct: made in house
Sequence (P05164 49-745): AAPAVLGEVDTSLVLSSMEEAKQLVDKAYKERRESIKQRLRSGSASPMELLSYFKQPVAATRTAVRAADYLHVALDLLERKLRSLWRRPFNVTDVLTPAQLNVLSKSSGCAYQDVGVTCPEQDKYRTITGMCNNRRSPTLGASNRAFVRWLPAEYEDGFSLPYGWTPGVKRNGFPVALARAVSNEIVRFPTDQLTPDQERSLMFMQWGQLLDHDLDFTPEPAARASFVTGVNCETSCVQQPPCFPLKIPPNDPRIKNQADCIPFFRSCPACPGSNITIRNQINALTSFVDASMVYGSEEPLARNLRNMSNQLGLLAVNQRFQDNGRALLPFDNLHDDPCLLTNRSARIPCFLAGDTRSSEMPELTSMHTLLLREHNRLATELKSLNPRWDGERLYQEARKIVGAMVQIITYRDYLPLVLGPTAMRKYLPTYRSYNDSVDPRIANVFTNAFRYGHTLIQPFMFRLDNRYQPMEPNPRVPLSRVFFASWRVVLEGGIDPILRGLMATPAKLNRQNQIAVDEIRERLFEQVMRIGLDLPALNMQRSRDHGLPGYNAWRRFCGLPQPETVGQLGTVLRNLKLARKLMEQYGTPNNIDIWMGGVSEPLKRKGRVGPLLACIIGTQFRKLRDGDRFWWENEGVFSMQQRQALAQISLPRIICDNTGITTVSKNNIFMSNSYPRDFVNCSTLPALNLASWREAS
runDescription: Inhibition of LDL oxidation by MPO, ELISA with Mab AG9
Assay type: biochemical
testContext: 5 min, pH 7.2, read-out: LDL oxidation (%)
Write the number in % without appending the unit.

# count of solved cases: 3
NCCc1c[nH]c2ccc(F)cc12 [Compound A, 5-fluorotryptamine, reference compound]
41.5
CCN(CC)CCc1c[nH]c2ccc(F)cc12 [Compound F]
8
Fc1ccc2[nH]cc(CCN3CCCC3)c2c1 [Compound E]
12.1

Shift focus to the following entry.
### Prompt Answer with reported remaining activity at 1 µM of CN(C)CCc1c[nH]c2ccc(F)cc12 [Compound D]
### Response 9.9
